Test system: UACC-62
Assay: NCI tumour cell line growth inhibition, 48 h
Activity calls are given as the source filed them. No stated cut-off is given here; in the data, active = GI50 up to about 1.1 µM and inactive = higher.
The entries below come with measured GI50 values attached.
experimentalReadout: GI50

molecule: COc1cc2c(/C=C3/C(=O)N(C)c4ccc(O)cc43)c(Cl)[nH]c2cc1C
val: 0.281 µM (active)
--
molecule: [O-][n+]1c(-c2ccccc2)c2nc3ccccc3nc2c2ccccc21
val: > 100 µM (inactive)
--
molecule: CCOC(=O)c1cn2c([nH]c3ccccc32)c(C#N)c1=O
val: > 100 µM (inactive)
--
molecule: CC(C)(C)OC(=O)NC(Cc1ccccc1)C(=O)OCN1C(=O)C2C3C=CC(C2C1=O)C1C2C(=O)N(COC(=O)C(Cc4ccccc4)NC(=O)OC(C)(C)C)C(=O)C2C31 (stereo unspecified)
val: 44.8 µM (inactive)
--
molecule: O=C(CC1(O)C(=O)Nc2ccc([N+](=O)[O-])cc21)c1ccncc1 (stereo unspecified)
val: 29.2 µM (inactive)
--
molecule: Cc1ccc(S(=O)(=O)c2ccccc2[N+](=O)[O-])cc1
val: 37.4 µM (inactive)
--
molecule: CCOC(=O)NC1C2CC(=O)OC(O2)C1OC(C)=O (stereo unspecified)
val: > 100 µM (inactive)
--
molecule: COc1c(O)cc2c3c(ccnc13)NC=C2
val: > 100 µM (inactive)
--
molecule: COc1ccc2cc(CNCCCN3CCN(CCCNCc4ccc5cc(OC)ccc5c4)CC3)ccc2c1
val: 0.569 µM (active)
--
molecule: OC(COc1cccc2ccccc12)CN1CCOCC1 (stereo unspecified)
val: > 100 µM (inactive)
--
molecule: CN(C)c1ccc(/C=C/C(=O)CC(=O)/C=C/c2ccc(N(C)C)cc2)cc1
val: 56.4 µM (inactive)
--
molecule: CCCCCC(C(O)C#N)C(O)(C(F)(F)F)C(F)(F)F (stereo unspecified)
val: > 10 µM (inactive)
--
molecule: C[N+](C)(C)CCN[N+]1(C)CCCc2ccccc21 (stereo unspecified)
val: > 100 µM (inactive)
--
molecule: CC(=O)c1ccccc1NP(=O)(c1ccccc1)c1ccccc1
val: 35.2 µM (inactive)
--
molecule: C1CSCCSCCSCCSC1
val: > 100 µM (inactive)
--
molecule: COc1cccc(C2c3cc4c(cc3OC(C)(N3CCCC3)C2C)OCO4)c1O (stereo unspecified)
val: 4.6 µM (inactive)
